- tested.system: Prothrombin (Bos taurus)
- protocol.details: thrombin protease inhibitors – biochemical, fluorescence polarization, uHTS hits, dose response (AID 602369)
- Assay type: functional
Calls of active or inactive are those of the source.
Known IC50 of a selection of molecules

Worked cases, IC50 given:
>  <molecule>
CCCCCCCCCCCC1NC(N)=NC(CCCO)=C1C(=O)OC (centres undefined)

>  <assay.metric>
IC50

>  <reported.measurement>
42.3 µM (active)

$$$$
>  <molecule>
CCCN1C(=O)/C(=C/c2c(NCCCOC(C)C)nc3c(C)cccn3c2=O)SC1=S

>  <assay.metric>
IC50

>  <reported.measurement>
0.148 µM (active)

$$$$
>  <molecule>
CCN(CC)c1ccc(/C=C2\C(=O)N(c3nnc(C)c(O)n3)N=C2C)cc1

>  <assay.metric>
IC50

>  <reported.measurement>
49.9 µM (active)

$$$$

Lab note: next molecule to report on.
[ask] IC50 for COc1ccc(/C=C2\SC(=S)N(CCCC(=O)Nc3cccc(C(=O)O)c3)C2=O)cc1OC ?
[reply] 23.9 µM (active)

###

// Cytochrome P450 3A4 (Homo sapiens, UniProt P08684) AC50 records

Solved cases below.
>  <compound.smiles>
CCCc1nc2sc3ccccc3c(=O)c2c(=O)n1CCOC

>  <reported.measurement>
35.5 µM (inconclusive)

$$$$
>  <compound.smiles>
C[C@@H](C(=O)O)[C@H]1C[C@]1(C)[C@H](NC(=O)OCc1ccccc1)c1ccccc1

>  <reported.measurement>
12.6 µM (inconclusive)

$$$$
>  <compound.smiles>
O=c1cnc2cnc(N3CCNCC3)nc2n1CCc1ccccc1

>  <reported.measurement>
15.8 µM (inconclusive)

$$$$

// next item, AC50 requested
[ask] Could you share which AC50 value was measured for COc1ccc(-c2nc3cnc(N4CCNCC4)nc3n(CCc3ccccc3)c2=O)cc1 ?
[reply] 20 µM (inconclusive)

###

Consider the following molecules and their measured EC50 readings.
- protocol.details: DRD fibroblast viability loss – cell-based, non-viral oncogenic, luminescence, dose response (AID 1934)
- Assay type: functional
- run.parameters: Homo sapiens
The source made the active and inactive calls.

Would you please look over these solved cases?
>  <compound.smiles>
CN(C)S(=O)(=O)c1ccc(C(=O)/C=C/c2cccnc2)cc1

>  <EC50>
10.4 µM (active)

$$$$
>  <compound.smiles>
O=c1c2ccccc2nc(/C=C/c2ccc([N+](=O)[O-])o2)n1CCCO

>  <EC50>
5.06 µM (inconclusive)

$$$$
>  <compound.smiles>
Cc1ccc(NC(=O)CCc2c[nH]c3ccccc23)nc1

>  <EC50>
17.7 µM (active)

$$$$

The record that follows has no EC50 shown yet.
[ask] // returns reported EC50 for input O=C(NC(Nc1ncc(S(=O)(=O)c2ccc([N+](=O)[O-])cc2)s1)(C(F)(F)F)C(F)(F)F)c1ccc(Cl)cc1
[reply] 12.4 µM (active)

###

- protocol.details: Trypanosoma cruzi growth suppression in host cells – NIH3T3 host cells, beta-gal luminescence, confirmation (AID 2044);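 also: intracellular parasites grown in NIH/3T3 mouse fibroblasts as host cells; luminescent beta-galactosidase reporter signal from transgenic T. cruzi replicating inside host cells; inhibitors lower the luminescence signal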
- Assay type: functional, cell-based
The source made the active and inactive calls.
assay.metric: EC50

>  <compound.smiles>
Cc1cc(C)c(S(=O)(=O)c2ccccc2Cl)c(Cl)n1

>  <EC50>
2320 nM (active)

$$$$
>  <compound.smiles>
Cc1ccc(-n2sc3ccccc3c2=O)cc1

>  <EC50>
361 nM (active)

$$$$

[ask] Quick one: EC50 of Cc1ccc(-n2cnn(-c3ccc([N+](=O)[O-])cc3[N+](=O)[O-])c2=O)cc1 ?
[reply] 1540 nM (active)

[ask] Similarly, COc1cccc(-c2cc3nc4c(c(NCC(C)(C)CN(C)C)n3n2)CCCC4)c1 ?
[reply] 487 nM (active)

[ask] For Cc1ccc2nc(-c3ccncc3)cc(C(=O)NCCc3ccc(F)cc3)c2c1 then?
[reply] 1700 nM (active)
